# key: entry, value: pEC50
- TGT: human mAChRM1 (Homo sapiens)
- Construct: host or cells: CHO-K1
- PROTOCOL_DESCRIPTION: mAChR M1 cell-based functional assay (calcium mobilization), positive allosteric modulator activity: increase in the EC20 acetylcholine response
- TEST_CONDITIONS: increase in the EC20 acetylcholine response, read-out: PAM Activity Human M1 EC50
Scale: negative log10 of molar concentration, which is what pEC50 denotes.

Note to self: pEC50 recorded for Cn1cc2c(-c3cc(F)c(CN4Cc5ncccc5C4=O)c(C(F)(F)F)c3)ccc(C(C)(C)O)c2n1 [Compound 76] was 6.36

pEC50 in this record for Cn1cc2cc(-c3ccc(CN4Cc5cccc(F)c5C4=O)c(F)c3F)cc(C(C)(C)O)c2n1 [Compound 170] : 5.71

Value of pEC50 reported for the compound Cn1cc2c(-c3cc(F)c(CN4Cc5ncccc5C4=O)c(F)c3)ccc(C3(O)CN(C(=O)OC(C)(C)C)C3)c2n1 [Compound 113] is 6.07

The value of pEC50 measured for the compound Cn1cc2c(-c3cc(F)c(CN4Cc5cccnc5C4=O)c(C4CC4)c3)ccc(C(C)(C)O)c2n1 [Compound 133] turned out to be 7.21

Record [2H]C1([2H])c2ncccc2C(=O)N1Cc1cc(F)c(-c2ccc(C(C)(C)O)c3nn(C)cc23)cc1F [Compound 148] . Reported pEC50: 6.69

Per the record, CC(C)(O)c1ccc(-c2cc(Cl)c(CN3Cc4ncccc4C3=O)c(Cl)c2)cc1 [Compound 46] has pEC50 of 5.84

###

Reported values of EC50 for individual entries
- TGT: human mAChRM1 (Homo sapiens)
- Construct: host or cells: CHO-K1
- Sequence (P11229 1-460): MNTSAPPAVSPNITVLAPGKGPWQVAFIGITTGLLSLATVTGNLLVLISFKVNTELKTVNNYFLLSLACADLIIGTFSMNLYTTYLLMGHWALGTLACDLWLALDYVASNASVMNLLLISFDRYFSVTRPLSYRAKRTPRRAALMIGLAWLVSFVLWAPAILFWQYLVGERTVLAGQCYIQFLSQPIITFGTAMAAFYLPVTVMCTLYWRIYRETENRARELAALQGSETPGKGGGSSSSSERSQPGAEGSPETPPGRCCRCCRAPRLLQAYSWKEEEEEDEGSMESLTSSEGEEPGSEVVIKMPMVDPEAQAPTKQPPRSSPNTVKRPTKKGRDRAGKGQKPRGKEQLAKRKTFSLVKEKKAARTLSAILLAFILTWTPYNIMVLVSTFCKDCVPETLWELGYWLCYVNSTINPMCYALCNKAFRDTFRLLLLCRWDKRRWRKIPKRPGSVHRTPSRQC
- PROTOCOL_DESCRIPTION: mAChR M1 cell-based functional assay (calcium mobilization), agonist activity upon compound addition, Emax relative to acetylcholine maximum
- TEST_CONDITIONS: calcium mobilization upon compound addition
Give just the number in µM; leave the unit off.

Some molecules with recorded EC50:
- MOLECULE: "COCCOc1cc(-c2ccc(C(C)(C)O)c3nn(C)cc23)cc(F)c1CN1Cc2cccnc2C1=O"
  EC50 / µM: 3.73
- MOLECULE: "Cc1cc(-c2ccc(C(C)(C)O)c3nn(C)cc23)cc(F)c1CN1Cc2ncccc2C1=O"
  EC50 / µM: 8.35
- MOLECULE: "CC[C@](C)(O)c1ccc(-c2cc(F)c(CN3Cc4ncccc4C3=O)c(F)c2)c2cn(C)nc12"
  EC50 / µM: 4.23
- MOLECULE: "[2H]C1([2H])c2ncccc2C(=O)N1Cc1c(F)cc(-c2ccc(C(C)(C)O)c3nn(C([2H])([2H])[2H])cc23)cc1C1CC1 (single isomer, unassigned)"
  EC50 / µM: 6.19
- MOLECULE: "Cn1cc2c(-c3cc(F)c(CN4Cc5ncncc5C4=O)c(F)c3)ccc(C(C)(C)O)c2n1"
  EC50 / µM: 3.78

So for [2H]C([2H])([2H])n1cc2c(-c3cc(F)c(CN4Cc5ncccc5C4=O)c(C4CC4)c3)ccc(C(C)(C)O)c2n1 (single isomer, unassigned) , the logged EC50 turned out to be 2.06

Query Cn1cc2c(-c3cc(F)c(CN4Cc5ncccc5C4=O)c(F)c3)ccc(C3(O)COC3)c2n1 yields EC50 of 6.84

The reported EC50 of the molecule [2H]C1([2H])c2ncccc2C(=O)N1Cc1c(F)cc(-c2ccc(C(C)(C)O)c3nn(C)cc23)cc1C1CC1 (single isomer, unassigned) was 5.3

Record CCn1cc2c(-c3cc(F)c(CN4Cc5ncccc5C4=O)c(F)c3)ccc(C(C)(C)O)c2n1 . Reported EC50: 4.11

Given item Cn1cc2c(-c3cc(F)c(CN4Cc5cccnc5C4=O)c(C4CCCC4)c3)ccc(C(C)(C)O)c2n1 , the value recorded as its EC50 is 9.68
